Readings of growth for the listed molecules
- Tested on: COLO 205 colon
- assay.text: NCI-60 one-dose screen, 48 h (100 = growth as untreated, 0 = no growth, -100 = all killed)
- assay.context: 10 µM unless noted
Compounds without any hit were thinned out: in the full panel of roughly 83,000, 20% have a hit. Active and inactive are the calls of the source. Rule for the calls: active = growth percent below 10; inactive = the rest.

CC(=O)O[C@]1(C(C)=O)CCC2C3C[C@H](C)C4=CC(=O)CC[C@]4(C)C3CC[C@@]21C (some centres not stated) ... 104% (inactive)
N#Cc1nc2c(S(=O)(=O)c3ccc(Cl)cc3)c(N)n(Nc3cccc(Cl)c3)c2nc1C#N ... 72.5% (inactive)
Cc1ccc(Nc2nc(N)nc(CSCC(=O)NN)n2)cc1 ... 110% (inactive)

Q) Please look up its growth: Cc1cc(NCc2cc(Nc3ccnc4cc(Cl)ccc34)ccc2F)nc(N2CCN(C)CC2)n1
A) -73.4% (active)

Q) And COC(=O)[C@]12CC[C@@H](C)[C@H](C)[C@@H]1C1=CC[C@@H]3[C@@]4(C)C(C=O)=C[C@@](C)(COS(C)(=O)=O)C4[C@H](O)C[C@@]3(C)[C@]1(C)CC2 (some centres not stated) ?
A) -70.8% (active)

Q) Same again, this time with Cc1ccc(S(=O)(=O)Oc2cc(OS(=O)(=O)c3ccc(C)cc3)cc(OS(=O)(=O)c3ccc(C)cc3)c2)cc1
A) 114% (inactive)

Q) Lookup COC(=O)c1ccc(C2Nc3ccc(S(=O)(=O)Nc4ccc(C)c(C)c4)cc3C3OCCC23)cc1 (configuration not stated)
A) 94% (inactive)

Q) Repeat with Cc1ccc2nc(NC(=O)CSc3nc(Nc4ccc([N+](=O)[O-])cc4)c(C#N)c(-c4ccccc4)n3)sc2c1
A) 108% (inactive)

Q) What do you get for NC1=NCc2nc3ccccc3c(=O)n2C1 ?
A) 124% (inactive)

Q) Next entry: COc1ccc(NC(=O)CSc2nc(C)c(C(C)=O)n2-c2ccc(Cl)cc2)cc1
A) 102% (inactive)

Q) O=C(/C=C/c1ccc(Cl)nc1)c1ccc(Cl)cc1Cl , same question.
A) 111% (inactive)

Q) Try this molecule too: COC(=O)[C@H](CSC)N(C)C(=O)[C@@H]1CSSC[C@@H](NC(=O)c2nc3ccccc3cc2O)C(=O)NCC(=O)N1C
A) 16% (inactive)

Q) Also need CCCCN(CCCC)CC(C)(C)C(O)c1ccc(OC)c2ccccc12 (configuration not stated) , thanks.
A) 71% (inactive)

Q) How about this molecule: CN1C(=O)N(C)C2C1NN=c1s/c(=C\c3ccccc3)c(=O)n12 (configuration not stated)
A) 11.9% (inactive)

Q) Also, COc1cc2ncn3c(=O)c4c5c(sc4nc3c2cc1OC)CCCC5 please.
A) 106% (inactive)

Q) Please answer likewise for COc1ccc2[nH]c(O)c(C(=Nc3ccc(N(C)C(=O)CN4CCN(C)CC4)cc3)c3ccccc3)c2c1
A) -6.6% (active)

Q) Similarly, COCCN(C(=O)c1ccc(F)cc1F)c1c(N)n(Cc2ccccc2)c(=O)[nH]c1=O ?
A) 124% (inactive)

Q) What about this molecule? C=C1C(=O)O[C@H]2[C@H]1CC/C(COC(=O)C(=O)c1c[nH]c3ccc(OC)cc13)=C\CC[C@@]1(C)O[C@@H]21
A) -68.6% (active)

Q) Field entry: Cc1cc(Cl)nc(NCc2cc(Nc3ccnc4cc(Cl)ccc34)ccc2F)n1
A) 75.8% (inactive)

Q) What do you have for O=C(Nc1ccccc1-c1nc2ccccc2c(=O)[nH]1)c1cc2ccccc2[nH]1 ?
A) 103% (inactive)

Q) Same lookup for COc1cc(/C=C/C(=O)c2ccc(Nc3nc(Nc4ccc(F)cc4)nc(Nc4ccc(Cl)cc4)n3)cc2)cc(OC)c1OC , please.
A) 78.5% (inactive)

Q) Also, COc1cc(C2CC(c3ccc(Nc4ccnc5cc(Cl)ccc45)cc3)=NN2C=O)cc(OC)c1OC (configuration not stated) please.
A) 95.6% (inactive)
